- Protocol Text: Liver microsome stability, rat
- Assay type: in vitro ADME
- Condition: Sprague-Dawley, rat liver microsomes, pH 7.4
Parameter: microsomal CLint at 1 μM

Summary for this molecule, Cc1c(C(=O)Nc2ccc3c(c2)B(O)OC3)nnn1-c1ccccn1 [Compound 23] : microsomal CLint at 1 μM is < 11.9 µL/min/mg

---

- Protocol Text: in vivo
- Condition: both, Sprague-Dawley, rat
Parameter: NOAEL at 14 days

Summary for this compound, `Cc1c(-c2ccccn2)coc1C(=O)Nc1ccc2c(c1)B(O)OC2` : NOAEL at 14 days is < 12.5 mg/kg

---

- Protocol Text: Liver microsome stability, hamster
- Format: in vitro ADME
- Condition: golden (Syrian), hamster liver microsomes, pH 7.4, Table 4, read-out: HamLM Clint
Items are presented alongside their recorded log10(microsomal CLint at 2 h, 1 µM).
A value of 2 here means microsomal CLint at 2 h, 1 µM of 100 in µL/min/mg, since values are log10.

# Structure Notation, Numeric Result
data = [
    ("Cc1cccc(-n2ncc(C(=O)Nc3ccc4c(c3)B(O)OC4)c2C)n1", 1.64),
    ("O=C(Nc1ccc2c(c1)B(O)OC2)c1cc(-c2ccccn2)n[nH]1", 2.40),
    ("O=C(Nc1ccc2c(c1)B(O)OC2)c1cn(C2CCC2)nc1C(F)(F)F", 2.53),
    ("Cc1nn(C2CCC2)cc1C(=O)Nc1ccc2c(c1)B(O)OC2", 1.76),
    ("O=C(Nc1ccc2c(c1)B(O)OC2)c1cn(CCC(F)(F)F)nc1C(F)(F)F", 2.06),
    ("Cc1c(C(=O)Nc2ccc3c(c2)B(O)OC3)cnn1CCC(F)(F)F", 1.68),
    ("O=C(Nc1ccc2c(c1)B(O)OC2)c1cn(CC(F)(F)F)nc1C(F)(F)F", 1.61),
    ("Cn1nc(C(=O)Nc2ccc3c(c2)B(O)OC3)cc1-c1ccccn1", 2.03),
]

Here's the next entry for you.
Summary for this compound, `O=C(Nc1ccc2c(c1)B(O)OC2)c1cn(C(F)(F)F)nc1C(F)(F)F` : log10(microsomal CLint at 2 h, 1 µM) is 3.02
